Cited source: patent US20090093469A1

- system tested: hNET (Homo sapiens)
- Construct: expressed in transfected cells
- method: Norepinephrine (NE) uptake assay in MDCK-Net6 cells stably transfected with human hNET
- Assay type: cell-based
- test context: test compound 1 μM; [3H]NE uptake, MDCK-Net6 cells; read-out: % Inhibition @ 1 μM (hNET)
Counter-ions that a name gives are not always drawn.
Please mark 1.0 if the recorded inhibition at 1 µM is equal to or greater than 70%, and 0.0 if it falls below.

CNC[C@@H](O)[C@H](c1ccccc1)n1ccc2cccc(OC)c21 [Example 77, hydrochloride] = 1.0
CNC[C@@H](O)[C@H](c1ccccc1)n1ccc2c(C#N)cccc21 [Example 128, hydrochloride] = 0.0
CNC[C@@H](O)[C@H](c1ccccc1)n1ccc2ccc(Cl)cc21 [Example 147, hydrochloride] = 1.0
CCNC[C@@H](O)[C@H](c1cccc(F)c1)n1ccc2ccccc21 [Example 55, hydrochloride] = 0.0
CNC[C@@H](O)[C@H](c1ccccc1)n1cc(C)c2cc(Cl)ccc21 [Example 119, hydrochloride] = 1.0
CNC[C@@H](O)[C@H](c1ccccc1)N1C(=O)C(C)(C)c2c(F)cccc21 [Example 196, hydrochloride] = 1.0
CC(C)NC[C@H](O)[C@@H](c1ccccc1)n1ccc2ccccc21 (racemic) [Example 6, hydrochloride] = 0.0
CCNC[C@H](O)[C@@H](c1ccccc1)n1ccc2cc(F)ccc21 (racemic) [Example 18, hydrochloride] = 0.0
CNC[C@@H](O)[C@H](c1ccc(F)cc1)n1cc(C)c2ccccc21 [Example 49, hydrochloride] = 1.0
CNC[C@@H](O)[C@H](c1cc(F)cc(F)c1)n1ccc2ccccc21 [Example 157, hydrochloride] = 1.0
CNC[C@@H](O)[C@H](c1ccccc1)n1ccc2c(OC)cccc21 (racemic) [Example 74, hydrochloride] = 0.0

###

- system tested: hNET (Homo sapiens, UniProt P23975)
- Construct: expressed in transfected cells
- Sequence (P23975 whole entry): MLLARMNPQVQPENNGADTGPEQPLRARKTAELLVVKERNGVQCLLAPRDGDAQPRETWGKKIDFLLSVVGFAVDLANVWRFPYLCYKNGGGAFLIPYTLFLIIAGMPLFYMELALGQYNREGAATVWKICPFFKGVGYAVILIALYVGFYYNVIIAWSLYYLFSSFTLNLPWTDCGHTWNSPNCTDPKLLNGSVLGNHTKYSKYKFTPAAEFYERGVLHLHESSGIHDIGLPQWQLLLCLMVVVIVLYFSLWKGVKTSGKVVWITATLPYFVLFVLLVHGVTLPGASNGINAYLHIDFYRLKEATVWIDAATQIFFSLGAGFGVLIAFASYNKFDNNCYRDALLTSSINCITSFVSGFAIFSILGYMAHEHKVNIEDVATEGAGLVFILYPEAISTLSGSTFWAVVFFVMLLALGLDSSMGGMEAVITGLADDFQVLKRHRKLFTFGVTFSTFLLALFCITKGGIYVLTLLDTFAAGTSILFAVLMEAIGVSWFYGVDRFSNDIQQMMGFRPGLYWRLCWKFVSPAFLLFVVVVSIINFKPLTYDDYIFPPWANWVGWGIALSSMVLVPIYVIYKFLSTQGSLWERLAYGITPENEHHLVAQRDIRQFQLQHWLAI
- method: Norepinephrine (NE) uptake assay in MDCK-Net6 cells stably transfected with human hNET
- Format: cell-based
- test context: MDCK-Net6, read-out: % Inhibition @ 1 μM (hNET)
- Protocol: Cells were plated at 300,000/T75 flask and cells were split twice weekly. […] Cells were plated at 250,000 cells/T75 flask and split twice weekly. On day 1, cells were plated at 3,000 cells/well in growth medium and maintained in a cell incubator (37° C., 5% CO2). […] The plates were counted in a Wallac Microbeta counter (PerkinElmer) to collect the raw cpm data. […]
Where a name gives a salt, the structure may show the parent alone.
property name: inhibition at 1 µM (%)

CNC[C@@H](O)[C@H](c1cccc(F)c1)n1ccc2ccccc21 [Example 47, hydrochloride] = 99.9
CNC[C@@H](O)[C@H](c1cccc(F)c1)n1ccc2cccc(Br)c21 [Example 135, hydrochloride] = 99.5
CNC[C@@H](O)[C@H](c1ccccc1)n1ccc2cc(OC)ccc21 [Example 76, hydrochloride] = 75.2
CNC[C@H](O)[C@H](c1cccc(F)c1)n1ccc2ccccc21 [Example 139, hydrochloride] = 94.9
CNC[C@@H](O)[C@H](c1cccc(F)c1)n1c(=O)n(C(C)C)c2cccc(F)c21 [Example 208, hydrochloride] = 99.8
CNCC(O)[C@H](c1ccccc1)n1ccc2ccccc21 (stereo in doubt) [Example 23, hydrochloride] = 89.7
CNC[C@@H](O)[C@@H](c1ccccc1)n1ccc2ccccc21 (racemic) [Example 16, hydrochloride] = 96.8
CNC[C@@H](O)[C@@H](c1ccccc1)n1ccc2cc(Cl)ccc21 (racemic) [Example 27, hydrochloride] = 75.4
CCn1c(=O)n([C@@H](c2cccc(F)c2)[C@H](O)CNC)c2ccccc21 [Example 199, hydrochloride] = 99.1
CNC[C@@H](O)[C@H](c1ccccc1)n1c(=O)n(C)c2ccccc21 [Example 205, hydrochloride] = 82.9
CNC[C@@H](O)[C@H](c1ccccc1Cl)n1ccc2ccccc21 [Example 38, hydrochloride] = 71.9
CCNC[C@H](O)[C@@H](c1ccccc1)n1ccc2ccccc21 (racemic) [Example 5, hydrochloride] = 58.1
CCNC[C@@H](O)[C@H](c1ccccc1)n1c(=O)n(C(C)C)c2ccc(F)cc21 [Example 204, hydrochloride] = 47.4
CNC[C@@H](O)[C@H](c1cccc(F)c1)n1ccc2c(F)cccc21 [Example 184, hydrochloride] = 99.7
CCNC[C@H](O)[C@@H](c1ccccc1)n1cc(C)c2ccccc21 (racemic) [Example 12, hydrochloride] = 70.6
CNC[C@@H](O)[C@H](c1cccc(Cl)c1)n1ccc2ccccc21 [Example 33, hydrochloride] = 99.4
CNC[C@@H](O)[C@H](c1cccc(C)c1)n1ccc2ccccc21 [Example 52, hydrochloride] = 94.3
CNC[C@@H](O)[C@H](c1cccc(F)c1)n1ccc2cccc(F)c21 [Example 183, hydrochloride] = 100
CNC[C@@H](O)[C@H](c1cccc(F)c1)n1ccc2ccc(F)cc21 [Example 133, hydrochloride] = 96.4
CNC[C@@H](O)[C@H](c1cccc(F)c1)n1ccc2ccc(Cl)cc21 [Example 151, hydrochloride] = 94.3
CNC[C@@H](O)[C@H](c1cccc(F)c1)n1cc(C)c2ccccc21 [Example 143, hydrochloride] = 96.8
CNC[C@@H](O)[C@H](c1cccc(F)c1)n1ccc2ccc(Br)cc21 [Example 132, hydrochloride] = 93
CNC[C@@H](O)[C@H](c1ccc(F)cc1)n1ccc2ccccc21 [Example 51, hydrochloride] = 87
CCc1cn([C@@H](c2cccc(F)c2)[C@H](O)CNC)c2ccccc12 [Example 97, hydrochloride] = 99.6
CNC[C@@H](O)[C@H](c1ccccc1)n1c(=O)n(C2CCC2)c2ccccc21 [Example 197, hydrochloride] = 97
CCn1c(=O)n([C@@H](c2ccccc2)[C@H](O)CNC)c2cc(F)ccc21 [Example 206, hydrochloride] = 96.9
CNC[C@@H](O)[C@H](c1cccc(F)c1)n1ccc2c(Br)cccc21 [Example 125, hydrochloride] = 94.3
CCn1c(=O)n([C@@H](c2ccccc2)[C@H](O)CNC)c2c(F)cccc21 [Example 207, hydrochloride] = 98.3
CNC[C@@H](O)[C@H](c1ccccc1)n1c(=O)n(C(C)C)c2cccc(F)c21 [Example 201, hydrochloride] = 98.8
CNC[C@@H](O)[C@H](c1cccc(F)c1)n1ccc2c(C)cccc21 [Example 96, hydrochloride] = 98.2

###

- system tested: hNET (Homo sapiens)
- Construct: expressed in transfected cells
- method: Norepinephrine (NE) uptake assay in MDCK-Net6 cells stably transfected with human hNET
- Format: cell-based
- test context: test compound 1 μM; [3H]NE uptake, MDCK-Net6 cells; read-out: % Inhibition @ 1 μM (hNET)
- Protocol: Cells were plated at 300,000/T75 flask and cells were split twice weekly. […] Cells were plated at 250,000 cells/T75 flask and split twice weekly. On day 1, cells were plated at 3,000 cells/well in growth medium and maintained in a cell incubator (37° C., 5% CO2). […] The plates were counted in a Wallac Microbeta counter (PerkinElmer) to collect the raw cpm data. […]
Counter-ions that a name gives are not always drawn.
Could you label it class 1 if measured inhibition at 1 µM is 90% or higher, and class 0 otherwise?

CNC[C@@](C)(O)[C@H](c1ccccc1)n1ccc2ccccc21 [Example 190, hydrochloride] = class 0
CNC[C@@H](O)[C@H](c1ccccc1)n1ccc2ccc(C)cc21 [Example 90, hydrochloride] = class 0
CNC[C@@H](O)[C@H](c1cccc(F)c1)n1cc(-c2cccc(F)c2)c2ccccc21 [Example 116, hydrochloride] = class 1
CNC[C@H](O)[C@@H](c1ccccc1)n1cc(C#N)c2ccccc21 (racemic) [Example 28, hydrochloride] = class 0
CNC[C@@H](O)[C@H](c1cccc(F)c1)n1cc(-c2ccc(Cl)c(Cl)c2)c2ccccc21 [Example 115, hydrochloride] = class 0
CNC[C@@H](O)[C@H](c1cccs1)n1ccc2ccccc21 [Example 103, hydrochloride] = class 0
CNC[C@@H](O)[C@H](c1cccc(C(F)(F)F)c1)N1CCc2ccccc21 [Example 138, hydrochloride] = class 1
O[C@@H](CNCc1ccccc1)[C@@H](c1ccccc1)n1ccc2ccccc21 (racemic) [Example 7, hydrochloride] = class 0
CNC[C@@H](O)[C@](C)(c1ccccc1)n1ccc2ccccc21 [Example 191, hydrochloride] = class 0
CNC[C@@H](O)[C@H](c1cccc(F)c1)n1ccc2ccncc21 [Example 86, dihydrochloride] = class 0
CNC[C@@H](O)[C@H](c1cccc(F)c1)n1cc(-c2ccccc2F)c2ccccc21 [Example 114, hydrochloride] = class 1
CNC[C@@H](O)[C@H](c1cccc(F)c1)n1cc(-c2ccccc2OC)c2ccccc21 [Example 176, hydrochloride] = class 1
CNC[C@@H](O)[C@H](c1cc(F)cc(F)c1)N1CCc2ccccc21 [Example 158, hydrochloride] = class 1
O[C@@H](CNCC1CCCCC1)[C@@H](c1ccccc1)n1ccc2ccccc21 (racemic) [Example 8, hydrochloride] = class 0
CNC[C@@H](O)[C@H](c1ccccc1)n1cc(C(C)C)c2ccccc21 [Example 154, hydrochloride] = class 1
